- test-target: Bovine serum albumin (BSA, fraction V) (Bos taurus)
- Construct: mature native serum albumin, 585 residues, fraction V from Roche; heat/acid-induced amyloid aggregation
- Sequence (P02769 25-607): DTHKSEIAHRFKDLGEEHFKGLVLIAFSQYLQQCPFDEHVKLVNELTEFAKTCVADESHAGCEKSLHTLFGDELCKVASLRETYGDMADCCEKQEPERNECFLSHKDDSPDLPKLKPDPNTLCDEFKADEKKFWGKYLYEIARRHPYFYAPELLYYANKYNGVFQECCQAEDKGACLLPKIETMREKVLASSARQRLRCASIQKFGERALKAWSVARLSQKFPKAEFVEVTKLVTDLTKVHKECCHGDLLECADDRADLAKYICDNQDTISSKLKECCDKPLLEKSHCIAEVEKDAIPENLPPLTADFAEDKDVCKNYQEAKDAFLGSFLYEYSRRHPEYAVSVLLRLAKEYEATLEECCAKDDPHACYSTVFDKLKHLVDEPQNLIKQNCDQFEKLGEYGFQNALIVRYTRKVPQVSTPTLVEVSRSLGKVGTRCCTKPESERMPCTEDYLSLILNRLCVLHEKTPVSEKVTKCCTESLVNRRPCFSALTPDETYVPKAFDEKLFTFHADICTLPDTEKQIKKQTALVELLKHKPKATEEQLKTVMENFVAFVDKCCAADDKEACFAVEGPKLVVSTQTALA
- test-protocol: ThT fluorescence, inhibition of BSA amyloid aggregation
pIC50: −log10 of the molar value.
readout-type: pIC50

// below: answered compounds
1) O=C(O)CCCCCNC(=O)CCC(=O)Nc1cccc2ccccc12 [E]: 5.27
2) O=C(O)CCNC(=O)CCC(=O)Nc1cccc2ccccc12 [D]: 5.20

I = NCCNC(=O)CCC(=O)Nc1cccc2ccccc12 [A]
II = O=C(CCC(=O)Nc1cccc2ccccc12)NCCNC(=O)CCC(=O)Nc1cccc2ccccc12 [F]
Input: Hi, I'm comparing I with II and wondering which one has the bigger number for pIC50. Any idea? To answer, give the label that identifies your chosen option.
Output: I

Data credit: paper PMC4556714
